Test system: biotinyl-Phe-oxazolone
Assay procedure: self-aminoacylation, catalytic enhancement (BFO) (fold over background); higher = more active; k-Seq, kA / k0A0; sequences stand for … in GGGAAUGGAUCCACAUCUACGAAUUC…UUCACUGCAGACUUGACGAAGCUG
Fewer inactive variants are shown than the library holds.
Values of self-aminoacylation greater than or equal to 20 map to label 1; values below map to label 0.

[[record]]
sequence_content = "AUUACCCCGGUCCUCGAGUGA [Fam2.1 aminoacylation ribozyme variant]"
measured_target = "biotinyl-Phe-oxazolone"
label_value = "label 1"

[[record]]
sequence_content = "AUUCAUCUAGGUCAUCUGGUG [Fam2.2 aminoacylation ribozyme variant]"
measured_target = "biotinyl-Phe-oxazolone"
label_value = "label 0"

[[record]]
sequence_content = "AAUACCCUGGUCAACGAGUGA [Fam2.1 aminoacylation ribozyme variant]"
measured_target = "biotinyl-Phe-oxazolone"
label_value = "label 0"


Prompt line: Threshold query (self-aminoacylation >= 20) on CGACUUCAAACAAUCGGUCUU [Fam1A.1 aminoacylation ribozyme variant]
Response line: label 0

Prompt line: Is self-aminoacylation at least 20? Consider CCACACGUCAAGCAAUCUGUC [Fam1B.1 aminoacylation ribozyme variant]
Response line: label 0

Prompt line: Item AUUUACCUAGGUCAACGGGUG [Fam2.2 aminoacylation ribozyme variant] with self-aminoacylation of 20 or above?
Response line: label 1

Prompt line: Please indicate if the recorded self-aminoacylation for AUUCAUCUAGGUCAUGGGGUG [Fam2.2 aminoacylation ribozyme variant] meets or exceeds 20.
Response line: label 1

Prompt line: Does the reported self-aminoacylation for GCACACUUCAAUCAAUCGGUC [Fam1B.1 aminoacylation ribozyme variant] fall at or above the 20 mark?
Response line: label 1

Prompt line: Decide: self-aminoacylation of CCACACUUCAAGCAGACGGUC [Fam1B.1 aminoacylation ribozyme variant] >= 20?
Response line: label 0
